biological target: UPR counterscreen luciferase reporter, luminescence; experiment: luciferase reporter activation, UPR counterscreen line – cell-based, luminescence, counter-screen for adaptive UPR activator project, dose response (AID 489027)
Calls of active or inactive are those of the source. The rule behind the calls is not given here.
Output constraint: value belongs to active, inactive

Please review the following examples before continuing.
| Molecule | Target or system | Discrete label |
| --- | --- | --- |
| CCn1c(/C=C/c2c(C)[nH]c3ccccc23)nc2ccccc2c1=O | UPR counterscreen luciferase reporter, luminescence | inactive |
| O=C(Nc1ccc2oc(-c3ccccc3Cl)nc2c1)c1cncc(Br)c1 | UPR counterscreen luciferase reporter, luminescence | inactive |

Q: Outcome logged for Cc1cc(NC(=O)c2cc(-c3ccncc3)nc3ccccc23)ccc1Br in this assay:
Result: inactive

Q: Outcome logged for CCCC[C@@H](C)C[C@@H](C)C(=O)N(C)[C@@H](CC(C)C)C(=O)N[C@H](C(=O)N(C)[C@H](C(=O)N1C[C@@H](O)C[C@H]1C(=O)N1C(=O)C=C[C@@H]1C)C(C)C)C(C)OC(C)=O (some centres undefined) in this assay:
Result: active

Q: Outcome logged for Cn1ncc(N=Cc2c(O)ccc3ccccc23)c1C(=O)Nc1cccc(Cl)c1 in this assay:
Result: inactive

Q: Outcome logged for O=C(C[C@H]1C[C@H](C(=O)N2CCCCC2)[C@@]2(CCc3ccccc3)c3[nH]c4ccc(Cl)cc4c3CCN2C1=O)NCCC1=CCCCC1 in this assay:
Result: inactive

Q: Outcome logged for Cc1ccccc1NC(=O)c1ccc(N/N=C/c2ccccc2O)c([N+](=O)[O-])c1 in this assay:
Result: active

Q: Outcome logged for CCOc1cc(/C=C2/C(=N)N3C=CSC3=NC2=O)ccc1OCCCOc1ccccc1C in this assay:
Result: active
